All figures here come from ChEMBL document CHEMBL1149513.

We begin with a simple list: items and their reported half-life.
- TEST: Half life in mouse at 5 mg/kg, iv
- Assay type: ADME, organism-based
- Parameters: dose 5 mg/kg, route intravenous
- EXPERIMENTAL CONTEXT: in vivo
Express it in h; write the number only.

# MOLECULE, half-life [h]
measured = [
    ("CC(C)C[C@H](NC(=O)CN)c1cc(C(F)(F)F)ccc1N1CCN(C(=O)CCc2ccc(Cl)cc2Cl)CC1", 3.8),
]

// field: half-life; key: CCC(C)[C@H](NC(=O)CCN)c1cc(C(F)(F)F)ccc1N1CCN(C(=O)CCc2ccc(Cl)cc2Cl)CC1 (some centres not stated) ; value = 5.2

* * *

- TEST: Tmax in mouse at 10 mg/kg, po
- Assay type: ADME, organism-based
- Parameters: dose 10 mg/kg, route oral
- EXPERIMENTAL CONTEXT: in vivo
We begin with a simple list: items and their reported Tmax.
Express it in h; write the number only.

# COMPOUND, UNIT ABBREV, REPORTED RESULT
rows = [
    ("CC(C)C[C@H](NC(=O)CN)c1cc(C(F)(F)F)ccc1N1CCN(C(=O)CCc2ccc(Cl)cc2Cl)CC1", "h", 2),
]

// field: Tmax; key: CCC(C)[C@H](NC(=O)CCN)c1cc(C(F)(F)F)ccc1N1CCN(C(=O)CCc2ccc(Cl)cc2Cl)CC1 (some centres not stated) ; value = 6

* * *

- TESTED SYSTEM: Melanocortin receptor 4 (Homo sapiens)
- Sequence (P32245 whole entry): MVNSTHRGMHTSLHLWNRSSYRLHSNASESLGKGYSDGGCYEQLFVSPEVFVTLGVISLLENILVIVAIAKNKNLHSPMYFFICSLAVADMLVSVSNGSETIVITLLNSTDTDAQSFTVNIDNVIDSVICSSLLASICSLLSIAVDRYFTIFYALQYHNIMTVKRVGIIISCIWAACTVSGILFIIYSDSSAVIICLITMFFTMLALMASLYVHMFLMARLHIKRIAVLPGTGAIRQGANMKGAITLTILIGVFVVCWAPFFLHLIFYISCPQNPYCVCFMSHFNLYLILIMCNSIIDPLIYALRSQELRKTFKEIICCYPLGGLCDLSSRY
- TEST: Activity at MC4R assessed as inhibition of alpha-MSH-stimulated cAMP production
We begin with a simple list: items and their reported IC50.
Express it in nM; write the number only.

# COMPOUND, IC50 [nM]
rows = [
    ("CCC(C)[C@H](NC(=O)CCN)c1cc(C(F)(F)F)ccc1N1CCN(C(=O)CCc2ccc(Cl)cc2Cl)CC1 (some centres not stated)", 1100),
]

// field: IC50; key: CC(C)C[C@H](NC(=O)CN)c1cc(C(F)(F)F)ccc1N1CCN(C(=O)CCc2ccc(Cl)cc2Cl)CC1 ; value = 1300
